protocolSummary: Solubility in 30% acetonitrile in water (HPLC of filtrate, XRPD of remaining solids)
Assay type: physicochemical
conditionNotes: aqueous with cosolvent or surfactant or cyclodextrin, thermodynamic from solid; 30% acetonitrile/70% water (vol/vol), after 24 hours; read-out: 9-ING-41 in filtrate (solubility) by HPLC
metricName: solubility at 24 h (µg/mL)

compound="Cn1cc(C2=C(c3coc4ccc(F)cc34)C(=O)NC2=O)c2cc3c(cc21)OCO3 [9-ING-41 Form I]" metricname="solubility at 24 h" recordedmeasurement=48

----------
protocolSummary: Solubility in 30% acetonitrile in water (HPLC of filtrate, XRPD of remaining solids)
Assay type: physicochemical
conditionNotes: aqueous with cosolvent or surfactant or cyclodextrin, thermodynamic from solid; 30% acetonitrile/70% water (vol/vol), after 30 minutes
metricName: solubility at 30 min (µg/mL)

molecule=Cn1cc(C2=C(c3coc4ccc(F)cc34)C(=O)NC2=O)c2cc3c(cc21)OCO3 recordedmeasurement=57

Just for reference, patent US12145943B2 is where these values come from.
